Molecular target: P70S6K (T412E mutant, Millipore) (Homo sapiens, UniProt P23443, T412E)
Sequence (P23443 whole entry T412E): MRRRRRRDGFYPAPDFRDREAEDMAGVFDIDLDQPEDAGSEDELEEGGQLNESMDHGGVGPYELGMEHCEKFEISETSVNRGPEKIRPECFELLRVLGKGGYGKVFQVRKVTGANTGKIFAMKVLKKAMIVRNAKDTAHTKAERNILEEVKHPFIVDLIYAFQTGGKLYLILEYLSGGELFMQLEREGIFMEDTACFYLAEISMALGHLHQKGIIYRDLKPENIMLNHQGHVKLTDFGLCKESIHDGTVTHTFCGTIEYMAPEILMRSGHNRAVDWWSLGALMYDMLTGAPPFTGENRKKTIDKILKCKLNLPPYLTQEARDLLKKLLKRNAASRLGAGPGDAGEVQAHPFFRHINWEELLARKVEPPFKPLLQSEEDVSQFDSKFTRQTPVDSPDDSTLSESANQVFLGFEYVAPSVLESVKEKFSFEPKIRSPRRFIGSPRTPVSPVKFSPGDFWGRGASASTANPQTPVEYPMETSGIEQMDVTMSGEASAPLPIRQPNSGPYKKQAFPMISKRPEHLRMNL
Experiment: P70S6K enzyme assay
Details: enzyme inhibition; 24 μM ATP, 90 min at 25° C., Caliper mobility shift
# IC50 listing for each entry below
Measurement type: IC50

CN(C)CCn1cc(C(F)(F)F)nc1C1CCN(c2ncnc3c2NC(=O)CN3)CC1 [Compound A55]; > 1000 nM
CN(C)CCn1cc(-c2ccccc2)nc1C1CCN(c2ncnc3c2NC(=O)CN3)CC1 [Compound A53]; > 1000 nM
COc1cc(-c2cn(CCN(C)C)c(C3CCN(c4ncnc5c4OCCN5)CC3)n2)ccc1F [Compound A8]; < 25 nM
CN(C)CCn1cc(-c2ccc(F)c(Cl)c2)nc1C1CCN(c2ncnc3c2OCCN3)CC1 [Compound A9]; < 25 nM
Fc1ccc(-c2cn(CCN3CCC3)c(C3CCN(c4ncnc5c4CCN5)CC3)n2)cc1C(F)(F)F [Compound A28]; < 25 nM
Cc1cc(-c2cn(CCN(C)C)c(C3CCN(c4ncnc5c4CCCN5)CC3)n2)ccc1F [Compound A33]; < 25 nM
COc1ccc(-c2cn(CCN3CCCC3)c(C3CCN(c4ncnc5c4NC(=O)CN5)CC3)n2)cc1 [Compound A61]; > 1000 nM

* * *

Target: P70S6K (T412E mutant, Millipore) (Homo sapiens, UniProt P23443, T412E)
Test: P70S6K enzyme assay
Conditions: enzyme inhibition; 24 μM ATP, 90 min at 25° C., Caliper mobility shift
# IC50 listing for each entry below
Measurement type: IC50

O=C1CNc2ncnc(N3CCC(c4nc(-c5ccc(F)c(C(F)(F)F)c5)cn4CCN4CCC4)CC3)c2N1; < 25 nM
CN(C)CCn1cc(-c2ccc(F)c(C(F)(F)F)c2)nc1C1CCN(c2ccnc3c2CCCN3)CC1; < 25 nM
O=C1CNc2ncnc(N3CCC(c4nc(-c5cccc(Cl)c5)cn4CCN4CCCC4)CC3)c2N1; 26 to 100 nM

* * *

Molecular target: His-AKT (Full Length) (Homo sapiens)
Sequence (P31749 whole entry): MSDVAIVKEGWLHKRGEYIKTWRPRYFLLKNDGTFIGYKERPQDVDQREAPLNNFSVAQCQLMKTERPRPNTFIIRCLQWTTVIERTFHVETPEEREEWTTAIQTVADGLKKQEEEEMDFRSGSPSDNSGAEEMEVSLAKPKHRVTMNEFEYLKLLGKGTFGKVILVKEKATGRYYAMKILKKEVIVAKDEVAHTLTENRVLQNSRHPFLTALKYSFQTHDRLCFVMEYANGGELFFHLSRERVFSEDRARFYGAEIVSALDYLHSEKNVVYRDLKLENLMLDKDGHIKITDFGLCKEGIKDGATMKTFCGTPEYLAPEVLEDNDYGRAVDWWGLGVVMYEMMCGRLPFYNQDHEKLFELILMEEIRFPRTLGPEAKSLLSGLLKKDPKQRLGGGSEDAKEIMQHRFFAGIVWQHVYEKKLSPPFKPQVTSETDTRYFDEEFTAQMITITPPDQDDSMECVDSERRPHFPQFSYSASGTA
Measurement type: IC50

FC(F)(F)c1cc(-c2cn(CCN3CCC3)c(C3CCN(c4ncnc5c4OCCN5)CC3)n2)ccn1; 26 to 100 nM
CN(C)CCn1cc(-c2ccc(F)c(C(F)(F)F)c2)nc1C1CCN(c2ncnc3c2CCCN3)CC1; < 25 nM
Cc1cc(-c2cn(CCN3CCC3)c(C3CCN(c4ncnc5c4CCC5)CC3)n2)ccc1F; < 25 nM
CN(C)CCn1cc(-c2cccnc2)nc1C1CCN(c2ncnc3c2NC(=O)CN3)CC1; > 1000 nM
COc1ccc(-c2cn(CCN(C)C)c(C3CCN(c4ncnc5c4NC(=O)CN5)CC3)n2)cc1; > 1000 nM
CN(C)CCn1cc(-c2ccccc2)nc1C1CCN(c2ncnc3c2NC(=O)CN3)CC1; > 1000 nM
Cc1cc(-c2cn(CCN(C)C)c(C3CCN(c4ncnc5c4CCN5)CC3)n2)ccc1F; < 25 nM
COc1cc(-c2cn(CCN3CCC3)c(C3CCN(c4ncnc5c4CCC5)CC3)n2)ccc1F; < 25 nM
COc1cc(-c2cn(CCN(C)C)c(C3CCN(c4ncnc5c4OCCN5)CC3)n2)ccc1F; < 25 nM

* * *

# pIC50 listing for each entry below
Molecular target: P70S6K (T412E mutant, Millipore) (Homo sapiens, UniProt P23443, T412E)
Assay: P70S6K enzyme assay
Conditions: enzyme inhibition; 24 μM ATP, 90 min at 25° C., Caliper mobility shift
pIC50: −log10 of the molar value.
Measurement type: pIC50

CN(C)CCn1cc(-c2ccc(F)c(F)c2)nc1C1CCN(c2ncnc3c2NC(=O)CN3)CC1 [Compound A46]; 7.00 to 7.59
CN(C)CCn1cc(-c2ccc(F)c(Cl)c2)nc1C1CCN(c2ncnc3c2CCC3)CC1 [Compound A17]; > 7.60
CN(C)CCn1cc(-c2ccnc(C(F)(F)F)c2)nc1C1CCN(c2ncnc3c2CCN3)CC1 [Compound A27]; > 7.60
COc1cc(-c2cn(CCN3CCC3)c(C3CCN(c4ncnc5c4CCC5)CC3)n2)ccc1F [Compound A22]; > 7.60
CN(C)CCn1cc(-c2ccc(F)c(Cl)c2)nc1C1CCN(c2ncnc3c2CCCN3)CC1 [Compound A35]; > 7.60
CN(C)CCn1cc(-c2cccc(Cl)c2)nc1C1CCN(c2ncnc3c2NC(=O)CN3)CC1 [Compound A47]; 6.30 to 7.00
CN(C)CCn1cc(-c2ccc(F)c(C(F)(F)F)c2)nc1C1CCN(c2ncnc3c2CCCN3)CC1 [Compound A32]; > 7.60
Cc1cc(-c2cn(CCN(C)C)c(C3CCN(c4ncnc5c4OCCN5)CC3)n2)ccc1F [Compound A7]; > 7.60
Cc1ccc(-c2cn(CCN(C)C)c(C3CCN(c4ncnc5c4NC(=O)CN5)CC3)n2)cc1 [Compound A49]; 6.30 to 7.00
